System: SNB-75 CNS
experiment: NCI tumour cell line growth inhibition, 48 h
log10 of TGI by entry:
measured.property: log10 of TGI (log10 of the value in µM)

[
  {
    "compound": "O=C1CC(c2ccc3c(c2)OCO3)Nc2ccccc21 (stereo not drawn)",
    "test.result": 1.27
  },
  {
    "compound": "Oc1ccc(-c2nc(-c3cccnc3)c(-c3ccc(F)cc3)[nH]2)cc1",
    "test.result": 1.54
  },
  {
    "compound": "COc1ccc2c(c1)/C(=C/c1c(C)nc3sc(C)nn13)C(=O)N2",
    "test.result": 0.85
  },
  {
    "compound": "CC(C)=CC(=O)C1c2cccc(O)c2C(=O)c2c(O)cc(C)cc21 (stereo not drawn)",
    "test.result": 0.67
  },
  {
    "compound": "O=C(Nc1ccccc1OC(F)(F)F)Nc1n[nH]c2ccccc12",
    "test.result": 1.70
  },
  {
    "compound": "CC(=O)O[C@H]1C(=O)[C@]2(C)[C@@H](OC(=O)OCCC(O)CO)C[C@H]3OC[C@@]3(OC(C)=O)[C@H]2[C@H](OC(=O)c2ccccc2)[C@]2(O)C[C@H](OC(=O)[C@H](O)[C@@H](NC(=O)c3ccccc3)c3ccccc3)C(C)=C1C2(C)C (stereo partly drawn)",
    "test.result": -0.80
  },
  {
    "compound": "O=CN/C=C/c1cc(O)ccc1O",
    "test.result": 1.99
  },
  {
    "compound": "NC(=O)c1cccc2cn(-c3ccc([C@@H]4CCCNC4)cc3)nc12",
    "test.result": 1.41
  },
  {
    "compound": "FC(F)(F)c1cc(Cl)cnc1N/N=C(/c1ccccc1)c1ccccn1",
    "test.result": 0.52
  },
  {
    "compound": "Nc1ccccc1SC(C[N+](=O)[O-])c1ccc2c(c1)OCO2 (stereo not drawn)",
    "test.result": 0.85
  },
  {
    "compound": "COC(=O)c1cc2c(n1S(=O)(=O)c1ccc(C)cc1)C(=O)C(=O)c1[nH]cc(C(=O)OCc3ccccc3)c1-2",
    "test.result": -0.52
  },
  {
    "compound": "CSc1nc2c(c(=O)[nH]1)N=C1c3ccccc3C(=O)C1C(c1ccccc1)N2 (stereo not drawn)",
    "test.result": 0.94
  },
  {
    "compound": "O=S(=O)(NC1=NCCN1C(=S)SN1CCn2c1nsc2=S)c1ccc(OC(F)(F)F)cc1",
    "test.result": 1.54
  },
  {
    "compound": "CCCCCCCCCCCOc1ccc(C(=O)C(=O)c2ccc(OCCCCCCCCCCC)c(OCCCCCCCCCCC)c2)cc1OCCCCCCCCCCC",
    "test.result": 1.98
  },
  {
    "compound": "CC1(C)N=C(/C(Cl)=[N+](/[O-])C(=O)c2ccc(F)cc2)C(C)(C)N1O",
    "test.result": 1.51
  },
  {
    "compound": "N#CC1=C(N)N(c2ccccc2)C(c2ccco2)C1(C#N)C#N (stereo not drawn)",
    "test.result": 1.82
  }
]
